These entries and their values trace back to the Immune Epitope Database (IEDB).

Target: HLA-B*53:01
Assay: IEDB peptide-MHC binding, purified MHC/competitive/fluorescence; filed as Kd, often an IC50 or EC50 that approximates it; bounds were set here for any values at or beyond the usual limits of such assays
Conditions: source organism: Burkholderia mallei SAVP1
pKd: −log10 of the molar value.
value.type: pKd

Which pKd value is on record for `MVFGRFSFA` ?
≤ 5.30

====

Target: HLA-A*33:01
Assay: IEDB peptide-MHC binding, purified MHC/competitive/radioactivity; filed as Kd, often an IC50 or EC50 that approximates it; bounds were set here for any values at or beyond the usual limits of such assays
Conditions: source organism: Dengue virus 3 Sri Lanka/1266/2000
value.type: pKd
pKd is a log-scale quantity: -log10 of the concentration expressed in molar.

Which pKd value is on record for `TIFTLTVAWR` ?
6.41
